The entries below come with measured viability, T/C values attached.
System: 935938-334-R-J1-PDC complex spheroid viability;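 note: spheroids exposed to drugs for seven days before viability read; 100% = DMSO vehicle control wells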
assay info: Anticancer human tumor 935938-334-R-J1-PDC patient-derived small intestine adenocarcinoma cell line growth inhibition [POLQ]
measurement parameters: second compound 1 µM; first compound 0.00316 µM; active compounds read low
metric: viability, T/C (%)

* CC[C@@]1(O)C(=O)OCc2c1cc1n(c2=O)Cc2cc3c(CN(C)C)c(O)ccc3nc2-1 + Nc1ccc(C#CCN(C(=O)Cc2ncc(C(F)(F)F)cc2C(F)(F)F)c2ccc(F)cc2)nn1 | 77.8
* C=CCn1c(=O)c2cnc(Nc3ccc(N4CCN(C)CC4)cc3)nc2n1-c1cccc(C(C)(C)O)n1 + Cc1cccc(N(C)C(=O)C2C(O)CCN2c2nc(C)cc(C(F)(F)F)c2C#N)c1 | 94.8
* Cn1ncnc1[C@H]1c2n[nH]c(=O)c3cc(F)cc(c23)N[C@@H]1c1ccc(F)cc1 + Cc1cccc(N(C)C(=O)C2C(O)CCN2c2nc(C)cc(C(F)(F)F)c2C#N)c1 | 97.7
* CCc1c2c(nc3ccc(O)cc13)-c1cc3c(c(=O)n1C2)COC(=O)[C@]3(O)CC + Cc1cccc(N(C)C(=O)C2C(O)CCN2c2nc(C)cc(C(F)(F)F)c2C#N)c1 | 82.9
* CC[C@@]1(O)C(=O)OCc2c1cc1n(c2=O)Cc2cc3c(CN(C)C)c(O)ccc3nc2-1 + COC1C(OC(N)=O)C(O)C(Oc2ccc3c(O)c(NC(=O)c4ccc(O)c(CC=C(C)C)c4)c(=O)oc3c2C)OC1(C)C | 76.4
* COc1cccc(OCCCN)c1-c1cc(Nc2cnc(C#N)cn2)n[nH]1 + Cc1cccc(N(C)C(=O)C2C(O)CCN2c2nc(C)cc(C(F)(F)F)c2C#N)c1 | 106
* COc1cccc(OCCCN)c1-c1cc(Nc2cnc(C#N)cn2)n[nH]1 + Nc1ccc(C#CCN(C(=O)Cc2ncc(C(F)(F)F)cc2C(F)(F)F)c2ccc(F)cc2)nn1 | 117
* C=CCn1c(=O)c2cnc(Nc3ccc(N4CCN(C)CC4)cc3)nc2n1-c1cccc(C(C)(C)O)n1 + COC1C(OC(N)=O)C(O)C(Oc2ccc3c(O)c(NC(=O)c4ccc(O)c(CC=C(C)C)c4)c(=O)oc3c2C)OC1(C)C | 93.1
* CCc1c2c(nc3ccc(O)cc13)-c1cc3c(c(=O)n1C2)COC(=O)[C@]3(O)CC + Nc1ccc(C#CCN(C(=O)Cc2ncc(C(F)(F)F)cc2C(F)(F)F)c2ccc(F)cc2)nn1 | 109
* Cn1ncnc1[C@H]1c2n[nH]c(=O)c3cc(F)cc(c23)N[C@@H]1c1ccc(F)cc1 + COC1C(OC(N)=O)C(O)C(Oc2ccc3c(O)c(NC(=O)c4ccc(O)c(CC=C(C)C)c4)c(=O)oc3c2C)OC1(C)C | 121
